Experiment: Fluorescence of the adducts with butylamine in acetonitrile
Assay type: physicochemical
Settings: Bioconjugated molecule (BuNH2) in CH3CN; fluorescence intensity
Method: Apparatus: • Acetonitrile: VWR HPLC quality • Micropipette: 5 μl, 10 μl, 200 μl, 1000 μl, • Eppendorf: Safe lock tube PCR • UV cuvette: Varian-Quartz 10 mm thick • Fluorescence cuvette: Hellma-Quartz 10 mm thick • Vortex: Bender & Hobein-Genie 2 • Centrifuge: Baky Bug • Absorbance spectrophotometer: Varian-Cary 50 scan • Fluorescence spectrophotometer: Varian-Cary Eclipse • Thermostated bath: Varian-Cary single cell peltier accessory Stock Solution: […]
So I've got a bunch of compounds here, and I need their Intensity normalized to 50 μM values.
Answers are plain numbers.

Example entries begin here.
>  <COMPOUND>
C/C=C/C=C/C=C/C(=O)/C=C(\O)C1=C2C=C3C[C@@H](CO)OC=C3C(=O)[C@@]2(C)OC1=O [epicocconone, reference compound]

>  <MEASURED QUANTITY>
Intensity normalized to 50 μM

>  <RECORDED NUMBER>
3950

$$$$
>  <COMPOUND>
CC1CC2=CC3=C(C(=O)c4ccccc4)C(=O)OC3(C)C(=O)C2=CO1 (stereo not shown) [Ia]

>  <MEASURED QUANTITY>
Intensity normalized to 50 μM

>  <RECORDED NUMBER>
98

$$$$
>  <COMPOUND>
COc1ccc(C(=O)C(C)C(=O)C2=C3C=C4CC(C)(C)OC=C4C(=O)C3(C)OC2=O)cc1 (stereo not shown) [Il]

>  <MEASURED QUANTITY>
Intensity normalized to 50 μM

>  <RECORDED NUMBER>
264

$$$$

Turning now to a further compound:
Would you kindly share the measured Intensity normalized to 50 μM for CC1(C)CC2=CC3=C(C(=O)/C=C(\O)c4ccccc4)C(=O)OC3(C)C(=O)C2=CO1 (stereo not shown) [Ik] ? 4157

Attribution: patent US8669378B2
